// data source = patent US20130296258A1

Catalogue of binders with associated IC50
assayedTarget: T1, Recombinant human Glypican-3 (human, UniProt P51654 25-559, limits assumed, randomly biotinylated via Lysine residues (EZ-Link Sulfo-NHS-LC-LC-Biotin) where captured on Neutravidin; not biotinylated where used as competitor in solution)
T1 construct: Bought protein; The biotinylated and the non-biotinylated preparation are written as one molecule; also called GPC3; GPC-3
T1 sequence (P51654 25-559 limits assumed): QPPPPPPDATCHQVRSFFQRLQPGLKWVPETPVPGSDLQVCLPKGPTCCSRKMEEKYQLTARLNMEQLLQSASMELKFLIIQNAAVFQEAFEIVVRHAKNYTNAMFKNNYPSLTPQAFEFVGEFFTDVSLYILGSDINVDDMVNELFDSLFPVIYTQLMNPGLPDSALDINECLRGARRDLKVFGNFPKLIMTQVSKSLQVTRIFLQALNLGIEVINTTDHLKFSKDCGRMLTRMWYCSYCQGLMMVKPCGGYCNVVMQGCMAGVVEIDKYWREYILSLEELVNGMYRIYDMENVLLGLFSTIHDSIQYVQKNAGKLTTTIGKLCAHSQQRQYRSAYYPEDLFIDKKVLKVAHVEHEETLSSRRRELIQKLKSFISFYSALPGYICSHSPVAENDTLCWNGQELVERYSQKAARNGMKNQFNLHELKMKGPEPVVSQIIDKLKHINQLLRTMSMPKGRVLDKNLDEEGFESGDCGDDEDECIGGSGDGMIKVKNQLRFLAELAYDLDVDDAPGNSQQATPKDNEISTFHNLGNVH
assay: competition ELISA: constant mutein pre-incubated with a dilution series of non-biotinylated human Glypican-3, free mutein detected on plate-captured biotinylated human Glypican-3

[
  {
    "binder": "PIE-G3D (designed binder, C-terminal Strep-tag II; also called Lcn2 mutein; not shown: C-terminal Strep-tag II) QDSTSDLIPAPPLSKVPLQQNFQDNQFHGKWYVVGMAGNARLREDKDPVKMTATIYELKEDKSYNVTAVQFRLKKCQYGITTFVPGSQPGEFTLGDIKSIPGLTSMLVRVVSTNYNQHAMVFFKRVRQNREFFDITLYGRTKELTSELKENFIRFSKSLGLPENHIVFPVPIDQCIDGSAWSHPQFEK",
    "IC50, pM": 700
  },
  {
    "binder": "PIE-G3H (designed binder, C-terminal Strep-tag II; also called Lcn2 mutein; not shown: C-terminal Strep-tag II) QDSTSDLIPAPPLSKVPLQQNFQDNQFHGKWYVVGIAGNYILREDKDPPKMRATIYELKEDKSYNVTRVFFSRKKCDYIIWTFVPGSQPGEFTLGFIKSNPGLTSLLVRVVSTNYNQHAMVFFKWVDQNREVFGITLYGRTKELTSELKENFIRFSKSLGLPENHIVFPVPIDQCIDGSAWSHPQFEK",
    "IC50, pM": 230
  }
]
